# System: UACC-62 melanoma
# ASSAY COMMENT: NCI-60 one-dose screen, 48 h
# EXPERIMENTAL PARAMETERS: 10 µM unless noted
About 83,000 compounds went through this panel and 20% of them were active in at least one assay; those are over-represented in the sample as a whole. Active and inactive are the calls of the source. Rule for the calls: active = growth percent below 10; inactive = the rest.
Classes used: true (1) = active, false (0) = inactive

[
  {
    "MOLECULE": "COc1ccc(C2=Nc3c(N)ncnc3NC(c3ccc4c(c3)OCO4)C2)cc1 (stereo not drawn)",
    "GROUP": "false (0)"
  },
  {
    "MOLECULE": "NC(=O)c1ccc[n+](Cc2ccc(Cl)cc2Cl)c1",
    "GROUP": "false (0)"
  },
  {
    "MOLECULE": "Cc1cccc(-c2nc(N(C)c3ccc4ncsc4c3)c3ccccc3n2)n1",
    "GROUP": "false (0)"
  },
  {
    "MOLECULE": "COc1ccc(C2=NN(C(=O)c3cc(OC)c(OC)c(OC)c3)C(c3ccc(Cl)cc3)C2)cc1OC (stereo not drawn)",
    "GROUP": "false (0)"
  },
  {
    "MOLECULE": "COc1c(CCC[P+](c2ccccc2)(c2ccccc2)c2ccccc2)cc2c(c1OC)OCO2",
    "GROUP": "true (1)"
  },
  {
    "MOLECULE": "O=C(Nc1ccc(Cl)cc1)Nc1ccc(Cl)c(C(F)(F)F)c1",
    "GROUP": "false (0)"
  },
  {
    "MOLECULE": "N#C/C(=C/C=C/c1cccc(Cl)c1)S(=O)c1ccccc1 (stereo not drawn)",
    "GROUP": "true (1)"
  },
  {
    "MOLECULE": "CC(C)C(=O)Nc1n[nH]c2cc(-c3cccc(NS(=O)(=O)C4CC4)c3)ccc12",
    "GROUP": "false (0)"
  },
  {
    "MOLECULE": "Cc1c(C(=O)N[C@@H](Cc2ccccc2)C(=O)C(=O)NCCc2ccccc2)[nH]c2ccccc2c1=O",
    "GROUP": "false (0)"
  },
  {
    "MOLECULE": "Clc1ccc(-c2c3ccc(=[N+]4CCCCC4)cc-3oc3cc(N4CCCCC4)ccc23)cc1",
    "GROUP": "true (1)"
  },
  {
    "MOLECULE": "Cc1cccc(Cc2cnc(NC(=O)c3ccc4nnsc4c3)s2)c1",
    "GROUP": "false (0)"
  },
  {
    "MOLECULE": "CN(C)CCNc1nc2ccccc2c2c1c1c(n2Cc2ccccc2)-c2ccccc2C1=O",
    "GROUP": "true (1)"
  },
  {
    "MOLECULE": "O=C(Nc1cccc(C(F)(F)F)c1)Nc1cccc(C(F)(F)F)c1",
    "GROUP": "false (0)"
  },
  {
    "MOLECULE": "O=C(NC(CSSCC(NC(=O)c1ccccc1)C(=O)O)C(=O)O)c1ccccc1 (stereo not drawn)",
    "GROUP": "false (0)"
  },
  {
    "MOLECULE": "CCCCCCN(CCCCCC)c1ccc(/C=C2/SC(=O)N(c3nc(N4CCCC4)nc(N4CCCC4)n3)C2=O)c(C)c1",
    "GROUP": "false (0)"
  },
  {
    "MOLECULE": "Cc1nn(-c2ccccc2)c2nc3c(c(-c4ccc(Cl)cc4)c12)CNC1(CCSCC1)N3",
    "GROUP": "false (0)"
  },
  {
    "MOLECULE": "COc1cc(-c2nn(-c3ccccc3)cc2-c2ccnc(NCCNS(=O)(=O)c3ccc(Cl)cc3)n2)ccc1Cl",
    "GROUP": "false (0)"
  },
  {
    "MOLECULE": "COc1ccc(-c2nc3c(N)c(CO)c(C)nc3o2)cc1",
    "GROUP": "false (0)"
  },
  {
    "MOLECULE": "O=C1CC(N2C(=O)/C(=C/C(Cl)=C\\c3ccc([N+](=O)[O-])cc3)SC2=S)C(=O)N1c1ccc(O)cc1 (stereo not drawn)",
    "GROUP": "true (1)"
  },
  {
    "MOLECULE": "COC(=O)[C@]12CC[C@@H](C)[C@H](C)[C@@H]1C1=CC[C@@H]3[C@@]4(C)C(C=O)=C[C@@](C)(COC(C)=O)C4=CC[C@@]3(C)[C@]1(C)CC2",
    "GROUP": "true (1)"
  },
  {
    "MOLECULE": "COc1ccc(-c2csc(C3=C(O)CN(C(C)C)C3=N)n2)cc1OC",
    "GROUP": "false (0)"
  },
  {
    "MOLECULE": "Cc1cc[c-]cc1.Fc1c[c-]c(-c2ccccn2)c(F)c1.[Pt+2].c1ccc(P(C[PH+](c2ccccc2)c2ccccc2)c2ccccc2)cc1",
    "GROUP": "true (1)"
  },
  {
    "MOLECULE": "CNC(=O)c1cc(Oc2cccc3nc(Nc4ccc(F)c(Cl)c4)ccc23)ccn1",
    "GROUP": "false (0)"
  },
  {
    "MOLECULE": "CC1(C)OC2C(CO[Si](C)(C)C(C)(C)C)OC(n3c(I)c(C#C[Si](C)(C)C)c(=O)[nH]c3=O)C2O1 (stereo not drawn)",
    "GROUP": "false (0)"
  },
  {
    "MOLECULE": "Cc1ccc(/C=C2\\C(=O)N(C)c3ccc(S(=O)(=O)Nc4ccc(C(C)(C)C)cc4)cc32)s1",
    "GROUP": "false (0)"
  },
  {
    "MOLECULE": "CC1=CN2C(=O)C3C4=C(CCCC4)SC3N=C2CN1c1c(C)cccc1C (stereo not drawn)",
    "GROUP": "false (0)"
  },
  {
    "MOLECULE": "Cc1ccc(NS(=O)(=O)c2ccc3c(c2)C(=O)CC(c2ccc(C(=O)C(C)C)cc2)N3)cc1C (stereo not drawn)",
    "GROUP": "false (0)"
  },
  {
    "MOLECULE": "COc1ccc(-c2csc(C3=C(O)CN(CCCN4CCCC4=O)C3=N)n2)cc1OC",
    "GROUP": "false (0)"
  },
  {
    "MOLECULE": "Nc1ccc2c(c1)c(N)nn2C(=O)Nc1ccc(Cc2ccccc2)cc1",
    "GROUP": "true (1)"
  },
  {
    "MOLECULE": "CCN(CC)c1nc(SCC(=O)Nc2nc3ccc(C)cc3s2)nc(-c2ccccc2)c1C#N",
    "GROUP": "false (0)"
  },
  {
    "MOLECULE": "COc1ccc2oc3c(C)c4c(c(C)c3c2c1)C(=O)N(Cc1ccccc1)C4=O",
    "GROUP": "false (0)"
  },
  {
    "MOLECULE": "NS(=O)(=O)c1cnccc1Sc1ccncc1S(N)(=O)=O",
    "GROUP": "false (0)"
  },
  {
    "MOLECULE": "O=C(O)c1ccc2c(c1Cl)C(=O)c1ccccc1C2=O",
    "GROUP": "false (0)"
  },
  {
    "MOLECULE": "CNS(=O)(=O)c1n[nH]nc1-c1cc(C(C)(C)C)c(O)c(C(C)(C)C)c1",
    "GROUP": "false (0)"
  },
  {
    "MOLECULE": "COc1ccc2c(c1)O/C(=C\\c1cccc(OCC(=O)Nc3nc(C)c(C)s3)c1)C2=O",
    "GROUP": "false (0)"
  },
  {
    "MOLECULE": "CC(=O)c1ccc(NCC(=O)Nc2ccccn2)cc1",
    "GROUP": "false (0)"
  },
  {
    "MOLECULE": "Cc1ccc(-n2nc3c(c(C#N)c2=O)CC(c2ccccc2Cl)C([N+](=O)[O-])=C3O)cc1 (stereo not drawn)",
    "GROUP": "false (0)"
  },
  {
    "MOLECULE": "O=C1OC(c2nc3ccccc3s2)=C/C1=C\\c1ccc(O)cc1",
    "GROUP": "false (0)"
  }
]
